# experimental-system: human Glucose-dependent Insulinotropic Polypeptide Receptor (hGIPR) (Homo sapiens, UniProt P48546)
# Sequence (P48546 22-466): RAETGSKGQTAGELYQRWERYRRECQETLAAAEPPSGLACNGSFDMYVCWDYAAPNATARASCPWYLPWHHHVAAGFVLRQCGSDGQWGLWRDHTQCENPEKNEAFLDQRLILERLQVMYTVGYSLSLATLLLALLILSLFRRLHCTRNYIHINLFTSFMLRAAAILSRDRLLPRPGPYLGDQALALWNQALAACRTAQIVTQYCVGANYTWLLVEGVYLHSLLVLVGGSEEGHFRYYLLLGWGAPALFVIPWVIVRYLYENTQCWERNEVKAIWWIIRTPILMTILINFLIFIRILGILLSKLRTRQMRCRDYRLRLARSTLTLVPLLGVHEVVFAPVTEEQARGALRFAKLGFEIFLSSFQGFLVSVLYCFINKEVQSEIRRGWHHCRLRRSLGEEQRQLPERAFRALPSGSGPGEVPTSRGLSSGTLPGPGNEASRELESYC
# assay-method-text: Functional in vitro GIPR antagonist potency assay (intracellular cAMP, HTRF, hGIP stimulation at EC80)
# Type: cell-based
# test-conditions: geometric mean; CHO-K1 cells stably expressing human GIPR, cAMP after hGIP stimulation at EC80
recorded-endpoint: IC50 (nM)
// return numeric value only (unit: nM, not printed)

Record excerpt, results attached:
{"structure": "Cc1cc(-n2ccc(NC(=O)[C@H]3CCCN3C(=O)Nc3ccc(OC(F)F)cc3)n2)ccc1C(=O)O", "recorded-endpoint": "IC50", "measured": 310}
{"structure": "Cc1cc(-n2ccc(NC(=O)[C@H]3CCCN3C(=O)Nc3ccc(C(C)C)c(C)c3)n2)ccc1C(=O)O", "recorded-endpoint": "IC50", "measured": 4.1}
{"structure": "Cc1cc(C(=O)O)ccc1-n1ccc(NC(=O)[C@H]2CCCN2C(=O)Nc2ccc(C(C)C)cc2)n1", "recorded-endpoint": "IC50", "measured": 98}

Qu. Suppose we examine the molecule `Cc1cc(-n2ccc(NC(=O)[C@H]3CCCN3C(=O)Nc3ccc(OC(F)(F)F)cc3)n2)c(F)cc1C(=O)O` ; what IC50 value has been reported?
Ans. 11

Qu. Data request, read-out IC50, for `Cc1cc(-n2ccc(NC(=O)[C@H]3CCCN3C(=O)Nc3ccc(C4CC4)c(C(F)(F)F)c3)n2)ccc1C(=O)O`
Ans. 13

Qu. Dear colleague, I am looking for the recorded IC50 of the following molecule: `Cc1cc(NC(=O)N2CCC[C@@H]2C(=O)Nc2ccn(-c3cc(F)c(O)c(F)c3)n2)ccc1C(C)C`
Ans. 3.8

Qu. Param item = `CC(C)c1ccc(NC(=O)N2CCC[C@@H]2C(=O)Nc2ccn(-c3ccc(C(N)=O)cc3)n2)cc1` ; retrieve measured IC50.
Ans. 120
